test system: Escherichia coli ATCC 25922; experiment: MIC, broth microdilution (CLSI), reference strain; details: CAMHB
Numbered stars: 1 amine (or outer) side, 2 acyl side, 3 side chain; on linkers, the order of the positions; unused ones are H or OH. Square brackets hold non-standard residues; d marks the D form. Peptide text beside a SMILES is read from it. Dab(3S-OH) = NC[C@H](O)[C@H](N)C(=O)O; X5 = O=C(C(N[*:1])c1cccs1)[*:2]; ΔZArg = N=C(N)NCC/C=C(\N)C(=O)O; dOrn = NCCC[C@@H](N)C(=O)O
parameter: Ec: MIC Escherichia coli ATCC 25922

C[C@H](NC(=O)[C@@H](NC(=O)[C@@H](N)CCCCN)[C@@H](O)CN)C(=O)NCC(=O)N[C@H](CCCN)C(=O)N1CCC[C@H]1C(=O)NC(C(=O)N[C@@H](CCCCN)C(=O)N/C(=C\CCNC(=N)N)C(=O)O)c1cccs1 (stereo partly drawn) [24.157] (H-K[Dab(3S-OH)]AG[dOrn]P[X5]K[ΔZArg]-OH) | − (>32 μg/mL)
C[C@H](NC(=O)[C@@H](NC(=O)[C@@H](N)CCCCN)[C@@H](O)CN)C(=O)NCC(=O)N[C@H](CCCN)C(=O)N1CCC[C@H]1C(=O)N[C@@H](C)C(=O)N[C@@H](CCCCN)C(=O)N/C(=C\CCNC(=N)N)C(=O)O [24.158] (H-K[Dab(3S-OH)]AG[dOrn]PAK[ΔZArg]-OH) | − (>32 μg/mL)

* * *

system: Escherichia coli ATCC 25922; assay: MIC, broth microdilution (CLSI), reference strain; details: CAMHB
Square brackets hold non-standard residues; d marks the D form. Peptide text beside a SMILES is read from it. * marks the point of attachment. Abu(4,4,4-F3) = N[C@@H](CC(F)(F)F)C(=O)O; Phe(3-OMe) = COc1cccc(C[C@H](N)C(=O)O)c1; Pro(cis-4-F) = O=C(O)[C@@H]1C[C@H](F)CN1; Dab(3S-OH) = NC[C@H](O)[C@H](N)C(=O)O; ΔZArg = N=C(N)NCC/C=C(\N)C(=O)O; Gly(cPr) = N[C@H](C(=O)O)C1CC1; dOrn = NCCC[C@@H](N)C(=O)O; Pip = O=C(O)[C@@H]1CCCCN1; Orn = NCCC[C@H](N)C(=O)O; Dab = NCC[C@H](N)C(=O)O; Abu = CC[C@H](N)C(=O)O; NH(CH2)5NH2 = NCCCCCN*; NH(CH2)4NH2 = NCCCCN*; NHiPr = CC(C)N*
parameter: Ec: MIC Escherichia coli ATCC 25922

Here's what some known entries look like.
C[C@H](NC(=O)[C@@H](NC(=O)[C@@H](N)CCCCN)[C@@H](O)CN)C(=O)NCC(=O)N[C@H](CCCN)C(=O)N1CCCC[C@H]1C(=O)N[C@@H](Cc1cnc[nH]1)C(=O)N[C@@H](CCCCN)C(=O)N/C(=C\CCNC(=N)N)C(=O)N[C@@H](CCCCN)C(=O)NCCCCN [24.3] (H-K[Dab(3S-OH)]AG[dOrn][Pip]HK[ΔZArg]K-{NH(CH2)4NH2}) | ++ (≤8 μg/mL)
N=C(N)NCC/C=C(\NC(=O)[C@H](CCCCN)NC(=O)[C@H](CC(F)(F)F)NC(=O)[C@@H]1CCCN1C(=O)[C@@H](CCCN)NC(=O)CNC(=O)[C@H](CCCN)NC(=O)[C@@H](NC(=O)[C@@H](N)CCCCN)[C@@H](O)CN)C(=O)O [211.8] (H-K[Dab(3S-OH)][Orn]G[dOrn]P[Abu(4,4,4-F3)]K[ΔZArg]-OH) | ++ (≤8 μg/mL)
COc1ccc(C[C@H](NC(=O)[C@@H]2CCCN2C(=O)[C@@H](CCCN)NC(=O)CNC(=O)[C@@H](NC(=O)[C@@H](NC(=O)[C@@H](N)CCCCN)[C@@H](O)CN)[C@@H](O)CN)C(=O)N[C@@H](CCCCN)C(=O)N/C(=C\CCNC(=N)N)C(=O)O)cc1 [22.39] (H-K[Dab(3S-OH)][Dab(3S-OH)]G[dOrn]PY(Me)K[ΔZArg]-OH) | + (≤32 μg/mL)
CC(C)NC(=O)/C(=C/CCNC(=N)N)NC(=O)[C@H](CCCCN)NC(=O)[C@H](Cc1cnc[nH]1)NC(=O)[C@@H]1CCCN1C(=O)[C@@H](CCCN)NC(=O)CNC(=O)[C@H](C)NC(=O)[C@@H](NC(=O)[C@@H](N)CCCCN)[C@@H](O)CN [24.162] (H-K[Dab(3S-OH)]AG[dOrn]PHK[ΔZArg]-NHiPr) | + (≤32 μg/mL)
N=C(N)NCC/C=C(\NC(=O)[C@H](CCCCN)NC(=O)[C@H](Cc1cnc[nH]1)NC(=O)[C@@H]1CCCN1C(=O)[C@@H](CCCN)NC(=O)CNC(=O)[C@@H](NC(=O)[C@@H](NC(=O)[C@@H](N)CCCCN)[C@@H](O)CN)C1CC1)C(=O)O [213.2] (H-K[Dab(3S-OH)][Gly(cPr)]G[dOrn]PHK[ΔZArg]-OH) | + (≤32 μg/mL)
C[C@H](NC(=O)[C@H](CCN)NC(=O)[C@@H](N)CCCCN)C(=O)NCC(=O)N[C@H](CCCN)C(=O)N1CCC[C@H]1C(=O)N[C@@H](Cc1cnc[nH]1)C(=O)N[C@@H](CCCCN)C(=O)N/C(=C\CCNC(=N)N)C(=O)NCCCCCN [14.20] (H-K[Dab]AG[dOrn]PHK[ΔZArg]-{NH(CH2)5NH2}) | − (>32 μg/mL)
C[C@H](NC(=O)[C@@H](NC(=O)[C@@H](N)CCCCN)[C@@H](O)CN)C(=O)NCC(=O)N[C@H](CCCN)C(=O)N1CCCC[C@H]1C(=O)N[C@@H](Cc1cnc[nH]1)C(=O)N[C@@H](CCCCN)C(=O)N/C(=C\CCNC(=N)N)C(=O)O [24.74] (H-K[Dab(3S-OH)]AG[dOrn][Pip]HK[ΔZArg]-OH) | + (≤32 μg/mL)
N=C(N)NCC/C=C(\NC(=O)[C@H](CCCCN)NC(=O)[C@H](Cc1c[nH]cn1)NC(=O)[C@@H]1CCCN1C(=O)[C@@H](CCCN)NC(=O)CNC(=O)[C@@H](NC(=O)[C@@H](NC(=O)[C@@H](N)CCCCN)[C@@H](O)CN)[C@@H](O)CN)C(=O)N[C@@H](CCCCN)C(=O)NCCCCCN [22.12] (H-K[Dab(3S-OH)][Dab(3S-OH)]G[dOrn]PHK[ΔZArg]K-{NH(CH2)5NH2}; C-terminus assumed) | ++ (≤8 μg/mL)
N=C(N)NCC/C=C(\NC(=O)[C@H](CCCCN)NC(=O)[C@H](Cc1cnc[nH]1)NC(=O)[C@@H]1CCCN1C(=O)[C@@H](CCCN)NC(=O)CNC(=O)[C@@H](NC(=O)[C@@H](NC(=O)[C@@H](N)CCCCN)[C@@H](O)CN)[C@@H](O)CN)C(N)=O [22.31] (H-K[Dab(3S-OH)][Dab(3S-OH)]G[dOrn]PHK[ΔZArg]-NH2) | ++ (≤8 μg/mL)
COc1cccc(C[C@H](NC(=O)[C@@H]2CCCN2C(=O)[C@@H](CCCN)NC(=O)CNC(=O)[C@H](C)NC(=O)[C@@H](NC(=O)[C@@H](N)CCCCN)[C@@H](O)CN)C(=O)N[C@@H](CCCCN)C(=O)N/C(=C\CCNC(=N)N)C(=O)O)c1 [24.92] (H-K[Dab(3S-OH)]AG[dOrn]P[Phe(3-OMe)]K[ΔZArg]-OH) | + (≤32 μg/mL)

# input So what does the record say about Ec: MIC Escherichia coli ATCC 25922 for CC[C@H](NC(=O)[C@@H](NC(=O)[C@@H](N)CCCCN)[C@@H](O)CN)C(=O)NCC(=O)N[C@H](CCCN)C(=O)N1CCC[C@H]1C(=O)N[C@@H](Cc1cnc[nH]1)C(=O)N[C@@H](CCCCN)C(=O)N/C(=C\CCNC(=N)N)C(=O)N[C@@H](CCCCN)C(=O)NCCCCN [28.1] (H-K[Dab(3S-OH)][Abu]G[dOrn]PHK[ΔZArg]K-{NH(CH2)4NH2}) ?
# output ++ (≤8 μg/mL)

# input So what does the record say about Ec: MIC Escherichia coli ATCC 25922 for C[C@H](NC(=O)[C@H](CCN)NC(=O)[C@@H](N)CCCCN)C(=O)NCC(=O)N[C@H](CCCN)C(=O)N1C[C@@H](F)C[C@H]1C(=O)N[C@@H](Cc1cnc[nH]1)C(=O)N[C@@H](CCCCN)C(=O)N/C(=C\CCNC(=N)N)C(=O)N[C@@H](CCCCN)C(=O)NCCCCN [14.4] (H-K[Dab]AG[dOrn][Pro(cis-4-F)]HK[ΔZArg]K-{NH(CH2)4NH2}) ?
# output − (>32 μg/mL)
